conditions: buffer, 5 h, pH 2.5
reported.property: Percent of Initial NaClO2 Remaining 5 Hours after Mixing (%)
Give just the number in %; leave the unit off.

Asked: Indicate its recorded Percent of Initial NaClO2 Remaining 5 Hours after Mixing; the molecule in question is NCCO
Given back: 45

Asked: Check the records and state Percent of Initial NaClO2 Remaining 5 Hours after Mixing for NCC(=O)O
Given back: 42

Asked: Entry NS(=O)(=O)O needs its Percent of Initial NaClO2 Remaining 5 Hours after Mixing filled in; supply it.
Given back: 95

Asked: Provide Percent of Initial NaClO2 Remaining 5 Hours after Mixing value for the following molecule: NCCN
Given back: 80

---

Provide the reported Percent of Initial NaClO2 Remaining 2 Hours after Mixing of each item.
conditions: buffer, 2 h, pH 2.5

Asked: Answer with reported Percent of Initial NaClO2 Remaining 2 Hours after Mixing of NCCO
Given back: 86%

Asked: Return value of Percent of Initial NaClO2 Remaining 2 Hours after Mixing for input NCC(=O)O , no commentary.
Given back: 78%

Asked: State its Percent of Initial NaClO2 Remaining 2 Hours after Mixing: NCCN
Given back: 92%

Asked: # return recorded Percent of Initial NaClO2 Remaining 2 Hours after Mixing for entry NS(=O)(=O)O
Given back: 98%

---

Assignment: determine reported Percent of Initial NaClO2 Remaining 5 Hours after Mixing for the given compounds.
experiment: Colorant effect on chlorite consumption (Example 2); type: physicochemical; details: disinfecting composition A of Example 1 with essentially equimolar colorant: 0.41% Blue #1, 0.26% Blue #2, 0.30% Yellow #5, 0.25% Yellow #6, 0.28% Red #40
The reply should be a number in %, with the unit left off.

Asked: Retrieve Percent of Initial NaClO2 Remaining 5 Hours after Mixing measured for COc1cc(S(=O)(=O)[O-])c(C)cc1N=Nc1c(O)ccc2cc(S(=O)(=O)[O-])ccc12.[Na+].[Na+] and print it.
Given back: 60

Asked: Give reported Percent of Initial NaClO2 Remaining 5 Hours after Mixing value for O=S(=O)([O-])c1ccc(N=Nc2c(O)ccc3cc(S(=O)(=O)[O-])ccc23)cc1.[Na+].[Na+]
Given back: 18

Asked: Consider the compound O=C1/C(=C2\Nc3ccc(S(=O)(=O)[O-])cc3C2=O)Nc2ccc(S(=O)(=O)[O-])cc21.[Na+].[Na+] . State its measured Percent of Initial NaClO2 Remaining 5 Hours after Mixing.
Given back: 43

Asked: Give recorded Percent of Initial NaClO2 Remaining 5 Hours after Mixing. O=C([O-])C1=NN(c2ccc(S(=O)(=O)[O-])cc2)C(=O)C1N=Nc1ccc(S(=O)(=O)[O-])cc1.[Na+].[Na+].[Na+] (centres unmarked)
Given back: 27
